Listed below: inhibition at 20 µM values for each entry.
- TEST_SYSTEM: Rac-1 (Homo sapiens (Human))
- ASSAY_NOTES: Rac inhibition assay (labeled GTP)
- Format: binding
- COND: read-out: Rac-1 % Inh.

O=C(c1csc2c(O)nc(-c3ccccn3)nc12)N1CCN(Cc2ccc(O)c(Cl)c2)CC1 [drawing 3654] : 76 to 100%
Cc1sc2c(O)nc(-c3ccccn3)nc2c1-c1ccncc1 [drawing 3816] : 51 to 75%
O=C(c1cc2nc(-c3ccccn3)nc(O)c2s1)N1CCOC(c2ccccc2)C1 (centres unmarked) [drawing 3714] : 76 to 100%
COc1ccc(-c2cc3nc(-c4ccccn4)nc(O)c3s2)cc1 [drawing 3881] : 0%

Let's switch to this compound now.
For the compound Cc1cc2nc(-c3ccccn3)nc(N)c2s1 [drawing 3708] , give its reported inhibition at 20 µM.
76 to 100%

----------
- TEST_SYSTEM: K-Ras (G12C) (Homo sapiens (Human), UniProt P01116, G12C)
- Sequence (P01116-2 other isoform, or with tags, fused parts or gaps G12C): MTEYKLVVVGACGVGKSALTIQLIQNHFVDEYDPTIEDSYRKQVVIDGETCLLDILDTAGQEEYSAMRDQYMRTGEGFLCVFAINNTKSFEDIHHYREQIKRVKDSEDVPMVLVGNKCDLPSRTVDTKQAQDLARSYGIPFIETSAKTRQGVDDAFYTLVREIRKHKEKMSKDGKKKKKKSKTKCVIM
- ASSAY_NOTES: Scintillation Proximity Assay (SPA), GTP affinity for binding domain
- Description: For the first time, the affinity of GTP for the GTP binding domain of K-Ras utilizing a Scintillation Proximity Assay (SPA) and MicroScale Thermophoresis (MST) has been measured and disclosed herein. These methods were not available when Wittinghofer and colleagues undertook their studies. This therefore led to the novel, unanticipated conclusion that compounds such as small molecules could be discovered that would bind to a Ras GTP binding domain and compete with the binding of GTP to Ras. […]
OBSERVABLE: Kd (nM)
Value expressed in nM; do not type the unit.

Tell me its Kd on K-Ras (G12C) (Homo sapiens (Human), UniProt P01116, G12C): Nc1nc2c(ncn2[C@@H]2O[C@H](COP(=O)(O)OP(=O)(O)OP(=O)(O)O)[C@@H](O)[C@H]2O)c(=O)[nH]1
258

----------
Listed below: inhibition at 20 µM values for each entry.
- TEST_SYSTEM: Rac-1 (Homo sapiens (Human), UniProt P63000)
- ASSAY_NOTES: Rac inhibition assay (labeled GTP)
- Format: binding
- COND: read-out: Rac-1 % Inh.

Oc1nc(-c2ccccn2)nc2c(-c3ccc(C4CCC4)cc3)csc12 [drawing 3737] : 51 to 75%
Oc1cccc(-c2csc3c(O)nc(-c4ccccn4)nc23)n1 [drawing 3817] : 76 to 100%
N#Cc1ccc(N2CCN(C(=O)c3csc4c(O)nc(-c5ccccn5)nc34)CC2)cc1 [drawing 3645] : 51 to 75%
COCCNc1nc(-c2cn(C)cn2)nc2sc(-c3ccccc3)c(-c3ccccc3)c12 [drawing 3901] : 51 to 75%
Cn1ccnc1-c1nc(O)c2scc(-c3cccc(OC(F)(F)F)c3)c2n1 [drawing 3921] : 51 to 75%

For the compound COC(=O)c1c(C)sc2c(N)nc(-c3ccccn3)nc12 [drawing 3818] , give its reported inhibition at 20 µM.
76 to 100%

For the compound COCCNc1nc(-c2nccn2C)nc2sc(-c3ccccc3)c(-c3ccccc3Cl)c12 [drawing 3898] , give its reported inhibition at 20 µM.
25 to 50%

For the compound Oc1nc(-c2ccccn2)nc2c(-c3ccc4c(c3)CCCO4)csc12 [drawing 3774] , give its reported inhibition at 20 µM.
25 to 50%

For the compound Cn1ccnc1-c1nc(O)c2scc(-c3cccc(Cl)c3)c2n1 [drawing 3935] , give its reported inhibition at 20 µM.
51 to 75%

For the compound COCCCCNC(=O)c1csc2nc(-c3ccccn3)nc(N3CCOCC3)c12 [drawing 3678] , give its reported inhibition at 20 µM.
51 to 75%

For the compound Oc1nc(-c2ccccn2)nc2cc(-c3ccc(-c4ccccc4)cc3)sc12 [drawing 3877] , give its reported inhibition at 20 µM.
0%

For the compound COc1cnc(CNC(=O)c2csc3c(O)nc(-c4ccccn4)nc23)[nH]c1=O [drawing 3838] , give its reported inhibition at 20 µM.
1 to 25%

For the compound COCCNc1nc(-c2nccn2C)nc2sc(C)c(-c3ccccc3)c12 [drawing 3902] , give its reported inhibition at 20 µM.
51 to 75%

For the compound O=S1(=O)CCN(Cc2cccc(-c3csc4c(O)nc(-c5ccccn5)nc34)c2)CC1 [drawing 3736] , give its reported inhibition at 20 µM.
76 to 100%

For the compound Oc1nc(-c2ccncn2)nc2c(-c3cccc(C(F)(F)F)c3)csc12 [drawing 3925] , give its reported inhibition at 20 µM.
1 to 25%

For the compound Cc1sc2c(O)nc(-c3ccccn3)nc2c1-c1ccccc1 [drawing 3777] , give its reported inhibition at 20 µM.
51 to 75%

For the compound Nc1nc(-c2ccccn2)nc2c(-c3ccccc3)csc12 [drawing 3731] , give its reported inhibition at 20 µM.
51 to 75%

For the compound Nc1nc(O)c2sc(-c3cccc(C(=O)N4CCC(O)C4)c3)cc2n1 (centres unmarked) [drawing 3861] , give its reported inhibition at 20 µM.
1 to 25%

For the compound Oc1nc(-c2ccccn2)nc(Oc2cccc(C(F)(F)F)c2)c1O [drawing 3876] , give its reported inhibition at 20 µM.
51 to 75%

For the compound Cc1c(-c2csc3c(O)nc(-c4ccccn4)nc23)cnn1C [drawing 3824] , give its reported inhibition at 20 µM.
76 to 100%

For the compound Cn1ccnc1-c1nc(NCCOC(F)(F)F)c2c(-c3ccccc3)c(-c3ccccc3)sc2n1 [drawing 3886] , give its reported inhibition at 20 µM.
25 to 50%

For the compound Cc1nn(C(C)C)cc1-c1csc2c(O)nc(-c3ccccn3)nc12 [drawing 3825] , give its reported inhibition at 20 µM.
76 to 100%

For the compound O=C(NCCc1ccc(O)c(O)c1)c1csc2nc(-c3ccccn3)nc(N3CCOCC3)c12 [drawing 3674] , give its reported inhibition at 20 µM.
25 to 50%

For the compound CNC(=O)c1ccc(-c2csc3c(O)nc(-c4ccccn4)nc23)cc1C [drawing 3757] , give its reported inhibition at 20 µM.
51 to 75%

Data origin, for the record: patent US10940139B2
